- assayed.system: ER (endogenous, MCF7 cells) (Homo sapiens (Human), UniProt P03372)
- Sequence (P03372 whole entry): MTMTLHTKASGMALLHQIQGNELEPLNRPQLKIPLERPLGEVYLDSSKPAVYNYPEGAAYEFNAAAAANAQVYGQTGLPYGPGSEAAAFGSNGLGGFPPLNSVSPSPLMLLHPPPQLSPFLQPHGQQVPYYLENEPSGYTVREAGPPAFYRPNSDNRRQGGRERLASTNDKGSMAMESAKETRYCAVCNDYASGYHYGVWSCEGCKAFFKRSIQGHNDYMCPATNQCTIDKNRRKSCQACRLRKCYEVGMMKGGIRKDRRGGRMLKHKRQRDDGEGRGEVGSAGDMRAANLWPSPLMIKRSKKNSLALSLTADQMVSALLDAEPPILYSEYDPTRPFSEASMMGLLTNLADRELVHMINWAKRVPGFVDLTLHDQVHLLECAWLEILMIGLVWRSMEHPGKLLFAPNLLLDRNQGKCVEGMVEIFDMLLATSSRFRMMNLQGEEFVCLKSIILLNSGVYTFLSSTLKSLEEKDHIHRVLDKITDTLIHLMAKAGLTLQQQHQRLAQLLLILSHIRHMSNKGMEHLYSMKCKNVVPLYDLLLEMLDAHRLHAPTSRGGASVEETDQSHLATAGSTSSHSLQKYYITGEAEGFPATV
- measurement.protocol: ER transcription assay (MCF7 cells), ERE-luciferase reporter
- Format: cell-based
- applied.conditions: read-out: MCF7 IC50
Structures can show the parent of a compound that is named as a salt.
measured.parameter: IC50 (nM)
Enter your answer as a number in nM; do not include the unit.

Query: Entry CC(C)c1ccccc1-c1sc2cc(OC(=O)[C@@H](N)C(C)C)ccc2c1Oc1ccc(/C=C/C(=O)O)cc1 [Example 85, hydrochloride] has what IC50?
Reply: 7

----------
- assayed.system: UniProt P03372
- measurement.protocol: ERα degradation (MCF7 cells), in-cell Western
- Type: cell-based
- applied.conditions: remaining ERα protein at 10 μM ligand, MCF7 cells, relative to DMSO control
I'd appreciate it if you marked entries True when % ERα remaining is lower than 20% and False when it is not.

Field: example entries. Status: answers known.
| compound | cat |
| --- | --- |
| Cc1c(O)cccc1-c1sc2cc(O)ccc2c1Oc1ccc(/C=C/C(=O)O)cc1 [Example 16] | False |
| CC(=O)/C=C/c1ccc(Oc2c(-c3ccc(C(F)(F)F)cc3)sc3cc(O)ccc23)cc1 [Example 121] | False |
| CC(=O)c1ccccc1-c1sc2cc(O)ccc2c1Oc1ccc(/C=C/C(=O)O)cc1 [Example 19] | True |
| CC(C)c1ccccc1-c1sc2cc(O)ccc2c1Nc1ccc(/C=C/C(=O)O)cc1 [Example 118] | True |

Continue with the compound presented below.
Query: Is the reported % ERα remaining for O=C(O)/C=C/c1ccc(Oc2c(-c3ccccc3Cl)sc3cc(O)ccc23)cc1 [Example 9] strictly below 20%?
Reply: True
